Attribution: ChEMBL document CHEMBL1156558

Molecular target: Peroxisome proliferator-activated receptor alpha (Homo sapiens, UniProt Q07869)
Sequence (Q07869 whole entry, the tested form may be a part): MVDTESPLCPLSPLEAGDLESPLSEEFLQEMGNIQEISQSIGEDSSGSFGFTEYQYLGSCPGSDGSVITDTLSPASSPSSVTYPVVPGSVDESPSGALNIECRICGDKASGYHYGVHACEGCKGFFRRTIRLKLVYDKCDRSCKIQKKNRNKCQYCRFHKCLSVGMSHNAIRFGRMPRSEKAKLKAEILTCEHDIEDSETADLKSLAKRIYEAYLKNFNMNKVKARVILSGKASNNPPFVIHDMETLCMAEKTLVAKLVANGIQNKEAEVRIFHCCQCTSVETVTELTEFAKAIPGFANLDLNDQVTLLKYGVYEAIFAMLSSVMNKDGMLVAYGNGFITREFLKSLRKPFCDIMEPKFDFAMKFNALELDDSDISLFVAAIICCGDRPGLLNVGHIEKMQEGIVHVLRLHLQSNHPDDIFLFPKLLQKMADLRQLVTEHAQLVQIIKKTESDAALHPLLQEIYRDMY
Test: Agonist activity at PPARalpha transfected in HEK293 cells by GAL4 transactivation assay
Overview of reported EC50 across a group of compounds:
Just the number in nM, nothing appended.

The cases that follow already have their EC50 on record.
Challenge: Can you look up the measured EC50 of CCC(Cc1ccc(OC)c(CNC(=O)c2ccc(C34CC5CC(CC(C5)C3)C4)cc2)c1)C(=O)O (racemic) for me?
Response given: 53

Challenge: Same question for CCCOc1cc(F)c(C[C@@H](CC)C(=O)O)cc1CNC(=O)c1ccc(C23CC4CC(CC(C4)C2)C3)cc1F please.
Response given: 200

Challenge: Same question for CCCOc1ccc(C[C@H](CC)C(=O)O)cc1CNC(=O)c1ccc(C23CC4CC(CC(C4)C2)C3)cc1 please.
Response given: 58

***
Challenge: Can you look up the measured EC50 of CCC(Cc1cc(F)c(OC)c(CNC(=O)c2ccc(C34CC5CC(CC(C5)C3)C4)cc2)c1)C(=O)O (racemic) for me?
Response given: 260

Challenge: Same question for CCC(Cc1cc(F)c(OC)c(CNC(=O)c2ccc(C(F)(F)F)cc2)c1)C(=O)O (racemic) please.
Response given: 54

Challenge: Same question for CCOc1cc(F)c(CC(CC)C(=O)O)cc1CNC(=O)c1ccc(C23CC4CC(CC(C4)C2)C3)cc1F (racemic) please.
Response given: 7.5

Challenge: Same question for CCC(Cc1ccc(OC)c(CNC(=O)c2ccc(C(F)(F)F)cc2F)c1)C(=O)O (racemic) please.
Response given: 7.9

Challenge: Same question for CCCOc1cc(F)c(C[C@H](CC)C(=O)O)cc1CNC(=O)c1ccc(C23CC4CC(CC(C4)C2)C3)cc1F please.
Response given: 12

Challenge: Same question for CCCOc1cc(F)c(CC(CC)C(=O)O)cc1CNC(=O)c1ccc(C23CC4CC(CC(C4)C2)C3)cc1 (racemic) please.
Response given: 17

Challenge: Same question for CCC(Cc1cc(CNC(=O)c2ccc(C34CC5CC(CC(C5)C3)C4)cc2)c(OC)cc1F)C(=O)O (racemic) please.
Response given: 13
